Hey, just so you know, these numbers are from paper PMC6305486.

# measured_on: T1, FtsQ_(50–276) (E. coli, UniProt P06136 50-276)
# T1 construct: pET21a; also called periplasmic domain of FtsQ; WT FtsQ; source: for the complexes purified together with its partners from mixed cell pellets
# assay_summary: BLI; BLItz; GST-fused FtsB proteins or GST-e5-FtsB/k5-FtsL complexes immobilised on AR2G biosensor by amine coupling; FtsQ_(50–276) (WT or Y248A) in solution, 0.1–80 μM; running buffer 20 mM Tris-HCl pH 8.0, 200 mM NaCl; equilibrium analysis of points at 100 s
# measurement_parameters: both partners purified
pKd: −log10 of the molar value.

# binder, pKd
records = [
    ("NGGQEALEERARNELSMTRPGETFYRLVPDASKRAQSAGQNNR (domain or fragment, E. coli, UniProt P0A6S5 61-103, looked up, pGST2; source: E. coli BL21 (DE3), purified (glutathione-Sepharose, gel filtration); not shown: GST, N-terminal, kept) [GST-fused FtsB_(61–103)]", 6.05),
    ("GST-fused FtsB_(25–103) (domain or fragment, E. coli, UniProt P0A6S5 25-103, looked up, pGST2; source: E. coli BL21 (DE3), purified (glutathione-Sepharose, gel filtration); not shown: GST, N-terminal, kept) GIHDYTRVNDDVAAQQATNAKLKARNDQLFAEIDDLNGGQEALEERARNELSMTRPGETFYRLVPDASKRAQSAGQNNR", 6.17),
]
